experiment: AUC (0-72)hrs in rat plasma at 3 mg/kg, po; format: ADME, organism-based; set-up: time < 72 hr, dose 3 mg/kg, route oral
Overview of reported AUC at 72 h across a group of compounds:
measurement_type: AUC at 72 h (ng·h/mL)

compound	measurement_type	measure_unit	numeric_value
C[C@@H]1CN(c2ccc(C#N)c(C(F)(F)F)c2)[C@@H](C)CN1C(=O)Nc1ccc(C(F)(F)F)nc1 (racemic)	AUC at 72 h	ng·h/mL	22000
CC(O)(CS(=O)(=O)c1ccc(F)cc1)C(=O)Nc1ccc(C#N)c(C(F)(F)F)c1 (configuration not stated) [BICALUTAMIDE]	AUC at 72 h	ng·h/mL	46900
